The reported numbers originate from patent US7825146B2.

Target: MMP-12 (Homo sapiens, UniProt P39900)
Construct: In regard to MMP-12, catalytic domain(^100Phe˜^263Gly) was amplified with RT-PCR; His-tag; enterokinase digestion-site; made in house
Sequence (P39900 100-263): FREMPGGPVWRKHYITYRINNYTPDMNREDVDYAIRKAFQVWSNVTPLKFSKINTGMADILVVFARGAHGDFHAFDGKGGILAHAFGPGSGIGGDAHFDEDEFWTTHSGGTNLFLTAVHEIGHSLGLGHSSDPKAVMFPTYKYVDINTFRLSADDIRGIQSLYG
Assay: Assay for inhibitory activities on MMPs (fluorogenic MOCAc peptide substrate): MMP-12
Assay type: biochemical
Details: catalytic domain 100Phe-263Gly
Kindly state IC50 for each of the entries shown.
Give just the number in µM; leave the unit off.

So what's the measured IC50 for this one? "C[C@H](NS(=O)(=O)c1ccc(-c2cc(-c3ccc(OC(F)(F)F)cc3)no2)cc1)C(=O)O" 0.000889

For CCC(C)[C@H](NS(=O)(=O)c1ccc(-c2cc(-c3ccc(C(F)(F)F)cc3)no2)cc1)C(=O)O (stereo partly shown) then? 0.000592

For CCC(C)[C@H](NS(=O)(=O)c1ccc(-c2cc(-c3ccc(Cl)cc3)on2)cc1)C(=O)O (stereo partly shown) then? 0.000257

For "CC(C)C[C@H](NS(=O)(=O)c1ccc(-c2cc(-c3ccc(Cl)cc3)on2)cc1)C(=O)O" then? 0.000295

For CCC(C)[C@H](NS(=O)(=O)c1ccc(-c2cc(-c3ccc(Br)cc3)on2)cc1)C(=O)O (stereo partly shown) then? 0.000177

For "CSc1ccc(-c2cc(-c3ccc(S(=O)(=O)N[C@H](C(=O)O)C(C)C)cc3)no2)cc1" then? 0.000289

For "CC(C)c1ccc(-c2cc(-c3ccc(S(=O)(=O)N[C@H](C(=O)O)C(C)C)cc3)no2)cc1" then? 0.000287

For "CC(C)[C@H](NS(=O)(=O)c1ccc(-c2cc(-c3ccc(Br)cc3)no2)cc1)C(=O)O" then? 0.000518

For "Cc1ccc(-c2cc(-c3ccc(S(=O)(=O)N[C@@H](CC(C)C)C(=O)O)cc3)on2)cc1" then? 0.00081

For "CC(C)[C@@H](NS(=O)(=O)c1ccc(-c2cc(-c3ccc(Br)cc3)on2)cc1)C(=O)O" then? 0.000275

For "CC(C)c1ccc(-c2cc(-c3ccc(S(=O)(=O)N[C@@H](C(=O)O)C(C)C)cc3)on2)cc1" then? 0.000687

For "CCc1ccc(-c2cc(-c3ccc(S(=O)(=O)N[C@@H](C(=O)O)C(C)C)cc3)no2)cc1" then? 0.000316

For "Cc1ccc(-c2cc(-c3ccc(S(=O)(=O)N[C@@H](C(=O)O)C(C)C)cc3)no2)s1" then? 0.000368

For "CC(C)C[C@H](NS(=O)(=O)c1ccc(-c2cc(-c3ccc(Cl)c(Cl)c3)on2)cc1)C(=O)O" then? 0.000184

For "CC(C)[C@@H](NS(=O)(=O)c1ccc(-c2cc(-c3ccc(SC(F)(F)F)cc3)no2)cc1)C(=O)O" then? 0.000463

For CCC(C)[C@H](NS(=O)(=O)c1ccc(-c2cc(-c3ccc(F)cc3)on2)cc1)C(=O)O (stereo partly shown) then? 0.000781

For CCC(C)[C@H](NS(=O)(=O)c1ccc(-c2cc(-c3ccc(OC(F)(F)F)cc3)on2)cc1)C(=O)O (stereo partly shown) then? 0.00014

For "COc1ccc(-c2cc(-c3ccc(S(=O)(=O)N[C@@H](C(=O)O)C(C)C)cc3)on2)cc1Cl" then? 0.000898

For "CC(C)[C@H](NS(=O)(=O)c1ccc(-c2cc(-c3ccc(Cl)c(F)c3)no2)cc1)C(=O)O" then? 0.00047

For "CC(C)[C@@H](NS(=O)(=O)c1ccc(-c2cc(-c3ccc(Cl)c(Cl)c3)on2)cc1)C(=O)O" then? 0.000575

For "CC(C)C[C@H](NS(=O)(=O)c1ccc(-c2cc(-c3ccc(OC(F)(F)F)cc3)on2)cc1)C(=O)O" then? 0.000203

For "CC(C)[C@H](NS(=O)(=O)c1ccc(-c2cc(-c3ccc(Cl)cc3)on2)cc1)C(=O)O" then? 0.000336

###

Kindly state IC50 for each of the entries shown.
Target: MMP-12 (Homo sapiens, UniProt P39900)
Construct: In regard to MMP-12, catalytic domain(^100Phe˜^263Gly) was amplified with RT-PCR; His-tag; enterokinase digestion-site; made in house
Assay: Assay for inhibitory activities on MMPs (fluorogenic MOCAc peptide substrate): MMP-12
Assay type: biochemical
Conditions: catalytic domain 100Phe-263Gly
Give just the number in µM; leave the unit off.

So what's the measured IC50 for this one? CCC(C)[C@H](NS(=O)(=O)c1ccc(-c2cc(-c3ccc(Cl)c(F)c3)no2)cc1)C(=O)O (stereo partly drawn) 0.000379

For "CSCC[C@@H](NS(=O)(=O)c1ccc(-c2cc(-c3ccc(OC(F)(F)F)cc3)no2)cc1)C(=O)O" then? 0.000764

For "CC(C)[C@H](NS(=O)(=O)c1ccc(-c2cc(-c3ccc(C(F)(F)F)cc3)on2)cc1)C(=O)O" then? 0.000209

For "CCCc1ccc(-c2cc(-c3ccc(S(=O)(=O)N[C@@H](C(=O)O)C(C)C)cc3)no2)cc1" then? 0.000216

For "CC(C)[C@H](NS(=O)(=O)c1ccc(-c2cc(-c3ccc(Cl)c(Cl)c3)on2)cc1)C(=O)O" then? 0.000294

For "CSc1ccc(-c2cc(-c3ccc(S(=O)(=O)N[C@H](C)C(=O)O)cc3)no2)cc1" then? 0.000377

For "CCCc1ccc(-c2cc(-c3ccc(S(=O)(=O)N[C@H](CC(=O)O)C(=O)O)cc3)no2)cc1" then? 0.000578

For "CC(C)C[C@H](NS(=O)(=O)c1ccc(-c2cc(-c3ccc(F)c(F)c3)no2)cc1)C(=O)O" then? 0.00069

For "CC(C)[C@@H](NS(=O)(=O)c1ccc(-c2cc(-c3ccc(F)c(F)c3)on2)cc1)C(=O)O" then? 0.000834

###

Biological target: MMP-8 (Homo sapiens, UniProt P22894)
Construct: In regard to MMP-8, catalytic domain (^99Phe˜^262Gly) was amplified with PCR; His-tag; enterokinase digestion-site; made in house
Sequence (P22894 99-262): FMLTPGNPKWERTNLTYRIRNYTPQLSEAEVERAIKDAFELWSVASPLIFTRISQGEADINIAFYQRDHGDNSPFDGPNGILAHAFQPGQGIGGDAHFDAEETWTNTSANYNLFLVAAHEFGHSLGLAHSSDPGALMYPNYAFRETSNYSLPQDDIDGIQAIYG
Test: Assay for inhibitory activities on MMPs (fluorogenic MOCAc peptide substrate): MMP-8
Type: biochemical
Settings: catalytic domain 99Phe-262Gly
Parameter measured: IC50

So what's the measured IC50 for this one? CCC(C)[C@H](NS(=O)(=O)c1ccc(-c2cc(-c3ccc(C)s3)on2)cc1)C(=O)O (stereo partly drawn) 0.00103 µM

For "CC(C)[C@H](NS(=O)(=O)c1ccc(-c2cc(-c3ccc4c(c3)CCO4)on2)cc1)C(=O)O" then? 0.000892 µM

For "Cc1ccc(-c2cc(-c3ccc(S(=O)(=O)N[C@H](Cc4ccccc4)C(=O)O)cc3)no2)s1" then? 0.00178 µM

For CCC(C)[C@H](NS(=O)(=O)c1ccc(-c2cc(-c3ccc(OC)cc3)on2)cc1)C(=O)O (stereo partly drawn) then? 0.00229 µM

For "CC(C)[C@H](NS(=O)(=O)c1ccc(-c2cc(-c3ccc4c(c3)OCO4)on2)cc1)C(=O)O" then? 0.00366 µM

For "Cc1ccc(-c2cc(-c3ccc(S(=O)(=O)N[C@@H](C(=O)O)C(C)C)cc3)no2)s1" then? 0.000567 µM

For "COc1ccc(-c2cc(-c3ccc(S(=O)(=O)N[C@@H](C(=O)O)C(C)C)cc3)on2)cc1Cl" then? 0.00397 µM

For "COc1ccc(-c2cc(-c3ccc(S(=O)(=O)N[C@@H](C(=O)O)C(C)C)cc3)no2)cc1F" then? 0.00263 µM

For "Cc1ccc(-c2cc(-c3ccc(S(=O)(=O)N[C@H](CC(C)C)C(=O)O)cc3)no2)s1" then? 0.00416 µM

For "CC(C)[C@@H](NS(=O)(=O)c1ccc(-c2cc(-c3ccc(Cl)s3)on2)cc1)C(=O)O" then? 0.000781 µM

For "COc1ccc(-c2cc(-c3ccc(S(=O)(=O)N[C@@H](C(=O)O)C(C)C)cc3)no2)cc1" then? 0.00419 µM

For "Cc1ccc(-c2cc(-c3ccc(S(=O)(=O)N[C@@H](C(=O)O)C(C)C)cc3)on2)s1" then? 0.00291 µM

For "COc1ccc(-c2cc(-c3ccc(S(=O)(=O)N[C@@H](CC(C)C)C(=O)O)cc3)on2)cc1F" then? 0.00111 µM

For "CC(C)C[C@H](NS(=O)(=O)c1ccc(-c2cc(-c3ccc(Cl)s3)on2)cc1)C(=O)O" then? 0.00286 µM

For "CC(C)[C@H](NS(=O)(=O)c1ccc(-c2cc(-c3ccc(Cl)c(Cl)c3)on2)cc1)C(=O)O" then? 0.00379 µM
